# test-protocol: S. cerevisiae RM11-1a growth modifiers, primary screen, strain RM11-1a, OD600, basal, 24 h (AID 1177);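 note: cultures grown under basal conditions with no added stressor; test concentration not given here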
# assay-context: OD600, 24 h, higher = more signal, called active from +8 up or from −8 down
parameter-measured: z-score
Just the number, please, no unit attached.

Sample CC(=O)OC[C@H]1OC(ON=CC[C@@H]2C=C[C@H](OC(C)=O)[C@@H](COC(C)=O)O2)[C@H](OC(C)=O)[C@@H](OC(C)=O)[C@@H]1OC(C)=O (stereo partly drawn) ; z-score observed: -0.618

Sample Cc1ccc(S(=O)(=O)N[C@@H]2COC(=O)[C@@H](C)COC(=O)CC=C[C@H]2C)cc1 ; z-score observed: 1.02

Sample C#CCCCON=C1C[C@@H](O)[C@@H](O)[C@@H]2[C@@H]3C(=O)N(C(C)(C)C)C(=O)[C@@H]3CC[C@@H]12 ; z-score observed: 0.438

Sample COC(=O)[C@@H]1CC[C@H](C)[C@@H](c2ccc(C)cc2)N1C(=O)c1ccc(C=NO[C@@H]2O[C@H](COC(C)=O)[C@@H](OC(C)=O)[C@H](OC(C)=O)[C@H]2OC(C)=O)cc1 ; z-score observed: 0.178

Sample C=CC[C@@H]1C=C[C@H](ON=C(C)CCN2CCc3nc(-c4ccccc4)c(-c4ccccc4)cc3C2)[C@@H](CO)O1 ; z-score observed: 0.124

Sample CC(=O)OC[C@H]1O[C@H](CC=NO[C@H](C)c2cn([C@H](CO)Cc3ccccc3)nn2)C=C[C@@H]1OC(C)=O ; z-score observed: 1.57

Sample O=C(NN=C1C[C@@H](O)[C@@H](O)[C@@H]2[C@@H]3C(=O)N(C4CCCCC4)C(=O)[C@@H]3CC[C@@H]12)OCc1ccccc1 ; z-score observed: 0.0487

Sample COc1ccc(O[C@H]2C=C[C@@H](c3ccccc3)O[C@@H]2CON=C(C)CCN2CCc3nc(-c4ccccc4)c(-c4ccccc4)cc3C2)cc1 ; z-score observed: 1.21

Sample CCOC(=O)[C@H](Cc1ccccc1)NC(=O)CCC1CC(OC(=O)NCCc2ccc(F)cc2)CC2(CCCC(COC(=O)NCCOC)O2)O1 (stereo partly drawn) ; z-score observed: 0.128

Sample COC(=O)[C@H](C)NC(=O)CCC1CC(OC(=O)NCc2ccc3c(c2)OCO3)CC2(CCCC(COC(=O)NCc3cccc(C(F)(F)F)c3)O2)O1 (stereo partly drawn) ; z-score observed: -0.476

Sample COc1ccc(C#C[C@@H]2C=C[C@H](OC(C)=O)[C@@H](COC(C)=O)O2)cc1 ; z-score observed: -0.939

Sample COC(=O)[C@H]1[C@@H](O)[C@@]2(O)c3ccccc3O[C@@]2(c2ccccc2)[C@@H]1c1ccccc1 ; z-score observed: 0.653

Sample CO[C@H]1COC(=O)CC=C[C@H](C)[C@@H](OC)COC(=O)[C@H](C)COC(=O)CC=C[C@@H]1C ; z-score observed: 0.606

Sample COC(=O)C=CCCc1coc(C=CCNC(=O)OC)n1 ; z-score observed: 0.237

Sample COC(=O)CC=C[C@@H](C)[C@@H]1C=C[C@H](O)[C@@H](CO)O1 ; z-score observed: 0.86

Sample COCOc1ccc(Br)cc1C(=O)[C@@H]1O[C@H]1c1cccc(OC)c1 ; z-score observed: 0.45

Sample COC(=O)CC=C[C@@H](C)[C@@H](C=NO[C@@H](C)c1cn([C@H](CO)Cc2ccccc2)nn1)OC ; z-score observed: -2.71

Sample CO[C@H]1COC(=O)[C@@H](C)COC(=O)[C@H](COCc2ccccc2)NC(=O)CC=C[C@H]1C ; z-score observed: 0.085
